- assay_protocol: ACEA_AR_agonist_AUC_viability: ACEA Biosciences xCELLigence Real-Time Cell Analysis on Androgen Receptor Agonism for Viability (AID 2283775);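 as to AC50: viability read 80 hours after compound addition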
- Procedure: ACEA_AR_agonist is a cell-based, single-readout assay that uses 22Rv1, a human prostate cancer cell line, with measurements taken at 80 hours after chemical dosing in a 384-well plate, although TO5 and TO6 (mc0.srcf) used a 96-well plate. Differences in plate size can be ignored given data normalization.ACEA_AR_80hr is one of two assay component(s) measured or calculated from the ACEA_AR assay. […]
Results filed as inconclusive are left out. Active and inactive are the calls of the source. The calls were made as follows: active = hit-call score of the fitted dose curve at least 0.9, where 1 is the maximum; inconclusive = response in the unintended direction; inactive = score below 0.9.
property_measured: AC50

Sample records with AC50:
CCOP(=S)(OCC)SCn1c(=O)oc2cc(Cl)ccc21 | 91.5 µM (active)
N#Cc1cc(Br)c(O)c(Br)c1 | 59.6 µM (active)
O=C(O)c1nc(Cl)ccc1Cl | inactive
OC(c1ccc(Cl)cc1)(c1cncnc1)c1ccccc1Cl (configuration not stated) | 72 µM (active)

Could you tell me which AC50 is on file for COC(=O)N(OC)c1ccccc1COc1ccn(-c2ccc(Cl)cc2)n1 ?
25.9 µM (active)

Which AC50 reading was recorded for the molecule CCON=C(CC)C1=C(O)CC(c2c(C)cc(C)cc2C)CC1=O (configuration not stated) ?
inactive

// query AC50 value for entry N#Cc1nn(-c2c(Cl)cc(C(F)(F)F)cc2Cl)c(N)c1S(=O)C(F)(F)F (configuration not stated)
40.6 µM (active)

# query: AC50 of entry Cc1cc(Cl)ccc1OCC(=O)O
inactive

Consider the molecule CCCCC(CC)COC(=O)c1ccccc1C(=O)OCC(CC)CCCC (configuration not stated) and give its measured AC50.
50 µM (active)

Fill blank: measured AC50 of the molecule COc1cnc(OC)n2nc(NS(=O)(=O)c3c(OCC(F)F)cccc3C(F)(F)F)nc12 is ____.
inactive

I would be grateful if you could share the reported AC50 for C=CC1(C)OC(=O)N(c2cc(Cl)cc(Cl)c2)C1=O (configuration not stated) .
38.5 µM (active)

Quick one: AC50 of CCCCNC(=O)n1c(NC(=O)OC)nc2ccccc21 ?
45.6 µM (active)

----------
- Read-out: Vascular endothelial growth factor receptor 2 (Homo sapiens) (UniProt P35968)
- assay_protocol: BSK_4H_VEGFRII: BioMAP Diversity Plus: 4H Assay for Vascular endothelial growth factor receptor 2 (VEGFR2) Biomarker Activity (AID 2283031)
- conditions: primary human endothelial cells (HUVEC); actives raise or lower the signal
Active and inactive are the calls of the source. The calls were made as follows: active = hit-call score of the fitted dose curve at least 0.9, where 1 is the maximum; inactive = score below 0.9.
Allowed answers: active, inactive

COc1cnc(OC)n2nc(NS(=O)(=O)c3c(OCC(F)F)cccc3C(F)(F)F)nc12 | inactive
CC1=C(C(=O)Nc2ccccc2)SCCO1 | inactive
CN(C)C(=S)SSC(=S)N(C)C | inactive

Outcome logged for CC(C)(C)c1ccc(CSc2cnn(C(C)(C)C)c(=O)c2Cl)cc1 in this assay:
active

Check the results log: what was the call for CNC(=S)S ?
inactive

Kindly provide the recorded test outcome for the following compound: CCCC1COC(Cn2cncn2)(c2ccc(Cl)cc2Cl)O1 (stereo not drawn)
inactive

----------
- Read-out: Glutamate-cysteine ligase catalytic (GCLC), GCLC (gene 2729)
- assay_protocol: LTEA_HepaRG_GCLC: Life Technologies and Expression Analysis (LTEA) Assay for Glutamate-cysteine ligase catalytic (GCLC) using HepaRG (AID 2283498)
- conditions: mRNA level, 48 h; actives raise or lower the signal
The source made the active and inactive calls. The calls were made as follows: active = hit-call score of the fitted dose curve at least 0.9, where 1 is the maximum; inactive = score below 0.9.
Hi! Could you answer with just one of these? true (active), false (inactive)

Solved cases below.
CS/C(C)=N/OC(=O)N(C)SN(C)C(=O)O/N=C(\C)SC | false
CC1=C(C(=O)Nc2ccccc2)SCCO1 | false
CN(C)C(=S)SSC(=S)N(C)C | false
C=CC1(C)OC(=O)N(c2cc(Cl)cc(Cl)c2)C1=O (centres undefined) | false
CCCCC(CC)COC(=O)c1ccccc1C(=O)OCC(CC)CCCC (centres undefined) | false
COC(=O)C(C)Oc1ccc(Oc2ccc(Cl)cc2Cl)cc1 (centres undefined) | false
CCON=C(CC)C1=C(O)CC(c2c(C)cc(C)cc2C)CC1=O (centres undefined) | false
CCOP(=S)(OCC)SCn1c(=O)oc2cc(Cl)ccc21 | false
Cc1cc(Cl)ccc1OCC(=O)O | false
CCOc1cc(Oc2ccc(C(F)(F)F)cc2Cl)ccc1[N+](=O)[O-] | false

# outcome recorded in this test, key = COP(N)(=O)SC (centres undefined)
false

Call for entry O=C(O)c1nc(Cl)ccc1Cl :
false

Recorded call for COC(=O)c1ccccc1C(=O)OC ?
false

----------
- Read-out: Thyroid Hormone Responsive (THRSP), THRSP (gene 7069)
- assay_protocol: LTEA_HepaRG_THRSP: Life Technologies and Expression Analysis (LTEA) Assay for Thyroid Hormone Responsive (THRSP) using HepaRG (AID 2283536)
- conditions: mRNA level, 48 h; actives raise or lower the signal
Activity calls are given as the source filed them. Rule for the calls: active = hit-call score of the fitted dose curve at least 0.9, where 1 is the maximum; inactive = score below 0.9.
property_measured: AC50

CC(C)Oc1cc(-n2nc(C(C)(C)C)oc2=O)c(Cl)cc1Cl | 11.8 µM (active)
C=CC1(C)OC(=O)N(c2cc(Cl)cc(Cl)c2)C1=O (stereo unspecified) | inactive
CCNc1nc(Cl)nc(NC(C)C)n1 | inactive
Cc1ccc(-c2c(Cl)nc(C#N)n2S(=O)(=O)N(C)C)cc1 | 6.18 µM (active)

// returns reported AC50 for input C=CCC1=C(C)C(OC(=O)C2C(C=C(C)C)C2(C)C)CC1=O (stereo unspecified)
inactive

What value of AC50 has been recorded for this entry: CCCCC(CC)COC(=O)c1ccccc1C(=O)OCC(CC)CCCC (stereo unspecified)
inactive

----------
- Read-out: Collagen III, COL3A1 (gene 1281)
- assay_protocol: BSK_hDFCGF_CollagenIII: BioMAP Diversity Plus: hDFCGF Assay for Collagen III Biomarker Activity (AID 2283056)
- conditions: primary human foreskin fibroblasts; actives raise or lower the signal
Calls of active or inactive are those of the source. Rule for the calls: active = hit-call score of the fitted dose curve at least 0.9, where 1 is the maximum; inactive = score below 0.9.
The reply should name one outcome from Yes (active), No (inactive)

O=C(O)COc1nc(Cl)c(Cl)cc1Cl | No

Could you please tell me the result logged for COc1ccc(C(c2ccc(OC)cc2)C(Cl)(Cl)Cl)cc1 in this assay?
No

Status in this test for COC(=O)C(C)Oc1ccc(Oc2ccc(Cl)cc2Cl)cc1 (centres undefined) ?
No

Please indicate how the test categorized N#Cc1cc(Br)c(O)c(Br)c1 .
No

Which outcome did this test record for the molecule CC(C)(C)c1ccc(CSc2cnn(C(C)(C)C)c(=O)c2Cl)cc1 ?
Yes

Look up the recorded call for CCOP(=S)(OCC)SCn1c(=O)oc2cc(Cl)ccc21 in this test.
Yes

Recorded test outcome, item CS/C(C)=N/OC(=O)N(C)SN(C)C(=O)O/N=C(\C)SC
No

Status in this test for CC(C)C1(C)N=C(c2nc3ccccc3cc2C(=O)O)NC1=O (centres undefined) ?
No

Query: recorded result category for Cc1ccc(-c2c(Cl)nc(C#N)n2S(=O)(=O)N(C)C)cc1 in this test
Yes

Check the results log: what was the call for Oc1ccccc1-c1ccccc1 ?
No

Name the outcome recorded for COP(N)(=O)SC (centres undefined) in the assay.
No

What outcome does the record of this test show for CCCCNC(=O)n1c(NC(=O)OC)nc2ccccc21 ?
No

For CNC(=O)ON=CC(C)(C)SC , which call appears in the assay record?
No

Recorded test call requested for CC1COC(Cn2cncn2)(c2ccc(Oc3ccc(Cl)cc3)cc2Cl)O1 (centres undefined)
Yes

----------
- Read-out: sulfotransferase (SULT2A), SULT2A1 (gene 6822)
- assay_protocol: CLD_SULT2A_24hr: CellzDirect (CLD) Gene Expression Assay for sulfotransferase (SULT2A) at 24 hours (AID 2283694)
Records with an inconclusive call do not appear. Active and inactive are the calls of the source. The calls were made as follows: active = hit-call score of the fitted dose curve at least 0.9, where 1 is the maximum; inconclusive = response in the unintended direction; inactive = score below 0.9.
Outcomes you can answer with include only these: 1 for active, 0 for inactive

Please state the recorded outcome for this compound: CCOC(=O)CC(SP(=S)(OC)OC)C(=O)OCC (stereo not given)
0

// outcome(item) with item = CCCCNC(=O)OCC#CI
0

Could you kindly confirm the outcome this assay logged for COC(=O)C(C)Oc1ccc(Oc2ccc(Cl)cc2Cl)cc1 (stereo not given) ?
0

So what was the verdict on CCc1nn(C)c(C(=O)NCc2ccc(C(C)(C)C)cc2)c1Cl in this test?
1

How was COc1nc(C)nc(NC(=O)NS(=O)(=O)c2ccccc2CCC(F)(F)F)n1 classified in this test?
0

----------
- assay_protocol: IUF_NPC2a_radial_glia_migration_120hr: Leibniz Research Institute for Environmental Medicine (IUF) 120-hour Neural Progenitor Cell Migration Assay for Radial Glia Migration (NPC2a) (AID 2284298)
Activity calls are given as the source filed them. How the source made its calls: active means hit-call score of the fitted dose curve at least 0.9, where 1 is the maximum; inactive means score below 0.9.
A correct response names exactly one class from active, inactive

COP(=S)(OC)Oc1nc(Cl)c(Cl)cc1Cl | inactive
CCOc1cc(Oc2ccc(C(F)(F)F)cc2Cl)ccc1[N+](=O)[O-] | inactive
CNC(=O)ON=CC(C)(C)SC | inactive

Returns: the outcome recorded for N#Cc1nn(-c2c(Cl)cc(C(F)(F)F)cc2Cl)c(N)c1S(=O)C(F)(F)F (centres undefined) in this assay.
active

Could you check what this test reported for CN(C)C(=S)SSC(=S)N(C)C ?
active

# outcome recorded in this test, key = C=CC1(C)OC(=O)N(c2cc(Cl)cc(Cl)c2)C1=O (centres undefined)
inactive

Dear all, I need the recorded test outcome for CCOC(=O)CC(SP(=S)(OC)OC)C(=O)OCC (centres undefined) , thank you.
inactive

What classification did CCCCOC(=O)c1ccccc1C(=O)OCCCC end up with in this test?
inactive

Identify the outcome logged in this assay for the molecule shown: COC(=O)N(OC)c1ccccc1COc1ccn(-c2ccc(Cl)cc2)n1
active
